Where do the numbers come from? From the NIST ThermoML archive (doi:10.1016/j.jct.2015.02.024).

Catalogue of compounds with associated activity coefficient
assay: activity coefficient (dimensionless); of the first substance listed, at infinite dilution; xn = mol fraction of the nth substance listed; settings: 358.15 K; 101 kPa; Liquid; Chromatography; x1 = 0

Here is how some compounds turned out for activity coefficient.
Cc1ccccc1C [1,2-dimethylbenzene] + C[N+]1(CCCO)CCOCC1.O=S(=O)([N-]S(=O)(=O)C(F)(F)F)C(F)(F)F
5.83
C#CCCC [1-pentyne] + C[N+]1(CCCO)CCOCC1.O=S(=O)([N-]S(=O)(=O)C(F)(F)F)C(F)(F)F
6.79
CCC(C)O (centres undefined) [butan-2-ol] + C[N+]1(CCCO)CCOCC1.O=S(=O)([N-]S(=O)(=O)C(F)(F)F)C(F)(F)F
2.34

Query compound follows.
I would be grateful if you could share the reported activity coefficient for CCCCCCCCC [nonane] + C[N+]1(CCCO)CCOCC1.O=S(=O)([N-]S(=O)(=O)C(F)(F)F)C(F)(F)F . 249

---

# activity coefficient per record follows
test: activity coefficient (dimensionless); of the first substance listed, at infinite dilution; xn = mol fraction of the nth substance listed; conditions: 298.15 K; 101 kPa; Liquid; Chromatography; x1 = 0
Reply: number alone, nothing else.

CCCCCC [hexane] + C[N+]1(CCCO)CCOCC1.O=S(=O)([N-]S(=O)(=O)C(F)(F)F)C(F)(F)F
267

Need activity coefficient of C=CCCC [1-pentene] + C[N+]1(CCCO)CCOCC1.O=S(=O)([N-]S(=O)(=O)C(F)(F)F)C(F)(F)F , thanks. 64.5

Any idea what its activity coefficient is? The molecule is CCC(C)CC [3-methylpentane] + C[N+]1(CCCO)CCOCC1.O=S(=O)([N-]S(=O)(=O)C(F)(F)F)C(F)(F)F 273

Which value of activity coefficient has been reported for CCCCCCC [heptane] + C[N+]1(CCCO)CCOCC1.O=S(=O)([N-]S(=O)(=O)C(F)(F)F)C(F)(F)F in the records? 345

---

test: activity coefficient (dimensionless); of the first substance listed, at infinite dilution; xn = mol fraction of the nth substance listed; conditions: 358.15 K; 101 kPa; Liquid; Chromatography; x1 = 0
Binary label based on activity coefficient with cut-off 3: below gives true, not below gives false.

CCOC(C)=O [ethyl acetate] + C[N+]1(CCCO)CCOCC1.O=S(=O)([N-]S(=O)(=O)C(F)(F)F)C(F)(F)F
true
c1ccsc1 [thiophene] + C[N+]1(CCCO)CCOCC1.O=S(=O)([N-]S(=O)(=O)C(F)(F)F)C(F)(F)F
true
COC(C)=O [methyl ethanoate] + C[N+]1(CCCO)CCOCC1.O=S(=O)([N-]S(=O)(=O)C(F)(F)F)C(F)(F)F
true

Check if activity coefficient falls below 3 for C=CCCCCCCCC [1-decene] + C[N+]1(CCCO)CCOCC1.O=S(=O)([N-]S(=O)(=O)C(F)(F)F)C(F)(F)F . false

Field: below-cutoff. Rule: recorded activity coefficient strictly less than 3. Subject: C1=CCCCC1 [cyclohexene] + C[N+]1(CCCO)CCOCC1.O=S(=O)([N-]S(=O)(=O)C(F)(F)F)C(F)(F)F false

For this compound, is activity coefficient lower than 3? C1CCOC1 [tetrahydrofuran] + C[N+]1(CCCO)CCOCC1.O=S(=O)([N-]S(=O)(=O)C(F)(F)F)C(F)(F)F true

Please check: activity coefficient for O [water] + C[N+]1(CCCO)CCOCC1.O=S(=O)([N-]S(=O)(=O)C(F)(F)F)C(F)(F)F , strictly under 3 or not? true

Consider the compound CCCC=O [butanal] + C[N+]1(CCCO)CCOCC1.O=S(=O)([N-]S(=O)(=O)C(F)(F)F)C(F)(F)F . Is its activity coefficient strictly less than 3? true

Field: below-cutoff. Rule: recorded activity coefficient strictly less than 3. Subject: CC(C)CO [2-methyl-1-propanol] + C[N+]1(CCCO)CCOCC1.O=S(=O)([N-]S(=O)(=O)C(F)(F)F)C(F)(F)F true
